Reported IC50 is given for each of the following molecules.
- Tested on: cultured human mast cells (CHMC)
- test.summary: CHMC low cell density IgE activation: tryptase assay
- Format: cell-based
- condition.info: low cell density; read-out: CHMC anti-IgE Tryptase
reported.metric: IC50

• CNC(=O)n1ccc2ccc(Nc3nc(Nc4cc(C)cc(C)c4)ncc3F)cc21 [Compound R927099] = > 10 µM
• Cn1ncc2cc(Nc3ncc(F)c(Nc4ccc(Cl)c(F)c4)n3)ccc21 [Compound R935411] = > 10 µM
• CC(C)(C)OC(=O)NC1CCOc2ccc(Nc3ncc(F)c(Nc4ccc(Cl)c(Cl)c4)n3)cc21 (racemic) [Compound R950433] = > 10 µM
